Just for reference, the METLIN SMRT retention time set (Domingo-Almenara et al. 2019) is where these values come from.

# Assay Summary: gradient 5% acetonitrile 3 min, to 50% in 2 min, to 85% in 15 min, held 3 min, 100 µL/min
# Condition Info: column: Zorbax Extend-C18 2.1 x 50 mm; eluents: water / acetonitrile, 0.1% formic acid
The following compounds are listed with their measured RP-LC retention time values.

{"columns": ["Compound", "Endpoint Unit", "RP-LC retention time"],
 "data": [
  ["CCc1cccc(C)c1Nc1c(-c2cc(Br)ccc2O)nc2ncccn12", "s", 1090],
  ["O=C1NC2(CCN(C(=O)c3ccccc3)CC2)N=C1c1ccc(Cl)cc1", "s", 842],
  ["COc1ccccc1-c1nc(-c2ccc3ncn(C)c3c2)no1", "s", 674],
  ["O=C(Nc1ccc(Br)cc1F)C1CCN(C(=O)c2cc(-c3ccncc3)n[nH]2)CC1", "s", 632],
  ["Cn1c(=O)c(=O)n(C)c2cc(NC(=O)c3cccs3)ccc21", "s", 653],
  ["Cc1ccc(NS(=O)(=O)c2ccc(-c3c(C)noc3C)cc2)cc1F", "s", 964],
  ["O=C(NC1CCN(c2cc(-c3cccs3)[nH]n2)C1)c1ccc(F)c(F)c1 (stereo not given)", "s", 752],
  ["Cc1ccc(N2CCC(NC(=O)Nc3cc(C)cc(C)c3)C2=O)cc1 (stereo not given)", "s", 931],
  ["CCc1nc(-c2cc(S(=O)(=O)N3CCN(c4ccc(F)cc4)CC3)c(C)s2)cs1", "s", 1220],
  ["O=C(NC1CCCCC1)N1CCC(c2noc(-c3ccccc3)n2)C1 (stereo not given)", "s", 939]
]}

###

# Assay Summary: gradient 5% acetonitrile 3 min, to 50% in 2 min, to 85% in 15 min, held 3 min, 100 µL/min
# Condition Info: column: Zorbax Extend-C18 2.1 x 50 mm; eluents: water / acetonitrile, 0.1% formic acid
Reported values of RP-LC retention time for individual entries
Reported Property: RP-LC retention time (s)

{"columns": ["Compound", "Recorded Measurement"],
 "data": [
  ["Cc1noc(COC2CCN(C(=O)c3ccc4ccccc4n3)CC2)n1", 707],
  ["CN(C1CCc2nn(CC3CC3)c(=O)n2CC1)S(=O)(=O)c1ccccc1Cl (stereo not given)", 796],
  ["O=C(C1CCCN(c2nn3c(=O)c4c(nc3s2)CCCC4)C1)N1CCN(c2ccccn2)CC1 (stereo not given)", 588],
  ["CN1CCN(C(=O)C(=O)Nc2c3c(nn2-c2ccc(Cl)cc2)CSC3)CC1", 634],
  ["O=S(=O)(c1cccs1)N1CCN(c2ccc(Nc3cccnc3)nn2)CC1", 548],
  ["Cc1ccc(CNC(=O)C2CCCN(c3nc4c(s3)c(C)nn4-c3ccc(Cl)cc3)C2)cc1 (stereo not given)", 1290],
  ["COc1ccc(CNC(=O)c2[nH]c3cc(C)sc3c2CN(C)C)cc1", 664],
  ["CCOC(=O)c1ccc2nc(NC(=O)c3ccn(C)n3)sc2c1", 828],
  ["OCCN1CCN(c2ncnc3c2cnn3-c2ccccc2Cl)CC1", 592],
  ["Cn1ncc2c(N3CCSCC3)nc(C(=O)Nc3cccc(OC(F)(F)F)c3)nc21", 1010],
  ["COc1ccc(NC(=O)c2noc3c2CCCC3)c(OC)c1", 1170],
  ["Cc1cccc(-n2c(=O)c3sccc3n(Cc3nc(-c4ccc(C(C)(C)C)cc4)no3)c2=O)c1", 1260],
  ["Cc1ccc(CNC(=O)C2(C)Cn3cnc(C(=O)NCc4cccc(C)c4)c3C(=O)N2C2CC2)cc1 (stereo not given)", 813],
  ["CCCc1nnsc1C(=O)Nc1ccc2c(c1)CN(C(=O)c1ccco1)CC2", 786],
  ["Cc1c(F)cccc1NC(=O)N1CC(F)(F)C[C@H]1CN1CCCC1", 676],
  ["Brc1cncc(-c2nc(-c3cccc(-c4ccn[nH]4)c3)no2)c1", 954],
  ["COC(=O)CSc1ccc(NC(C)=O)nn1", 577],
  ["COCCN1C(=O)[C@H]2CN(Cc3ccc(C)cc3C)C[C@H]2C1=O", 644],
  ["CCCCNC(=O)CCCN1C(=O)CCn2nc(C)cc21", 629],
  ["Cc1cc(Cl)ccc1NC(=O)N1CCN(C2=CC3=NCC(C)N3C=N2)CC1 (stereo not given)", 814]
]}
